Attribution: patent US20240209076A1

Target: T1, recombinant human IL-6 (human, UniProt P05231 30-212)
T1 construct: Flowed in solution over the captured antibodies
T1 sequence (P05231 30-212 limits assumed): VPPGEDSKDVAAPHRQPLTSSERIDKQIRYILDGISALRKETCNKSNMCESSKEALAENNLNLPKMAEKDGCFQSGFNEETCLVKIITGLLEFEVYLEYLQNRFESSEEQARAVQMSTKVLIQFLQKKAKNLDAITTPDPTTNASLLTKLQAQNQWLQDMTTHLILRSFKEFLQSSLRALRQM
Assay: SPR (Biacore), supernatant IgG on Protein A, 25 C
Below: a set of entries, each annotated with reported kon.
Give a bare numeral; the unit M⁻¹ s⁻¹ is implied.

Sample answers from the record:
Using known records, supply kon for anti-IL-6 antibody, heavy chain I108S, light chain WT (antibody, IgG1, V domains shown, Full IgG1 tested; V domains derived as in m2) VH: EVQLVESGGGLVQPGGSLRLSCAASGFTFSPFAMSWVRQAPGKGLEWVAKISPGGSWTYYSDTVTGRFTFSLDTSKSTAYLQMNSLRAEDTAVYYCARQLWGYYALDSWGQGTLVTVSS VL: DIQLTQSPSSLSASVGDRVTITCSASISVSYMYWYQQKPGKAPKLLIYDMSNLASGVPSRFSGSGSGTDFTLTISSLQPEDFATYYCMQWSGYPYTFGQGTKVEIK 554000

Using known records, supply kon for anti-IL-6 antibody, heavy chain T63G, light chain WT (antibody, IgG1, V domains shown, Full IgG1 tested; V domains derived as in m2) VH: EVQLVESGGGLVQPGGSLRLSCAASGFTFSPFAMSWVRQAPGKGLEWVAKISPGGSWTYYSDGVTGRFTFSLDTSKSTAYLQMNSLRAEDTAVYYCARQLWGYYALDIWGQGTLVTVSS VL: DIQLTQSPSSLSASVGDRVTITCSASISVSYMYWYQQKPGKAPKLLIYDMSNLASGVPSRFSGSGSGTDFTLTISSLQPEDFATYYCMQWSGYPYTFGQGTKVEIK 517000

Using known records, supply kon for anti-IL-6 antibody, heavy chain S30G, light chain WT (antibody, IgG1, V domains shown, Full IgG1 tested; V domains derived as in m2; also called S30G (heavy chain)) VH: EVQLVESGGGLVQPGGSLRLSCAASGFTFGPFAMSWVRQAPGKGLEWVAKISPGGSWTYYSDTVTGRFTFSLDTSKSTAYLQMNSLRAEDTAVYYCARQLWGYYALDIWGQGTLVTVSS VL: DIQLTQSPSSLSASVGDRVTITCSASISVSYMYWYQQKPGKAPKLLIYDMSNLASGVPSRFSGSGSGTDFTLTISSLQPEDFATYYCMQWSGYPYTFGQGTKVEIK 398000

Using known records, supply kon for anti-IL-6 antibody, heavy chain F29H, light chain WT (antibody, IgG1, V domains shown, Full IgG1 tested; V domains derived as in m2) VH: EVQLVESGGGLVQPGGSLRLSCAASGFTHSPFAMSWVRQAPGKGLEWVAKISPGGSWTYYSDTVTGRFTFSLDTSKSTAYLQMNSLRAEDTAVYYCARQLWGYYALDIWGQGTLVTVSS VL: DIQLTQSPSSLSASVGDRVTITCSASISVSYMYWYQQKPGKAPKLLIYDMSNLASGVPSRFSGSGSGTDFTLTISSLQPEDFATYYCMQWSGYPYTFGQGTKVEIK 495000

Using known records, supply kon for anti-IL-6 antibody, heavy chain T65Y, light chain WT (antibody, IgG1, V domains shown, Full IgG1 tested; V domains derived as in m2) VH: EVQLVESGGGLVQPGGSLRLSCAASGFTFSPFAMSWVRQAPGKGLEWVAKISPGGSWTYYSDTVYGRFTFSLDTSKSTAYLQMNSLRAEDTAVYYCARQLWGYYALDIWGQGTLVTVSS VL: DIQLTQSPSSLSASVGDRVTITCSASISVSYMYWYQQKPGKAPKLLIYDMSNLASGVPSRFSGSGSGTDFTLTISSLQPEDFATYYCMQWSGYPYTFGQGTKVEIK 749000

More entries:
Using known records, supply kon for anti-IL-6 antibody, heavy chain A105H, light chain WT (antibody, IgG1, V domains shown, Full IgG1 tested; V domains derived as in m2) VH: EVQLVESGGGLVQPGGSLRLSCAASGFTFSPFAMSWVRQAPGKGLEWVAKISPGGSWTYYSDTVTGRFTFSLDTSKSTAYLQMNSLRAEDTAVYYCARQLWGYYHLDIWGQGTLVTVSS VL: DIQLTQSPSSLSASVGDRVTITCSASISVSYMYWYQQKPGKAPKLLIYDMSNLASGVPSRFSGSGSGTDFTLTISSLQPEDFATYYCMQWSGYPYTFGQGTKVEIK 404000

Using known records, supply kon for anti-IL-6 antibody, heavy chain T63D, light chain WT (antibody, IgG1, V domains shown, Full IgG1 tested; V domains derived as in m2) VH: EVQLVESGGGLVQPGGSLRLSCAASGFTFSPFAMSWVRQAPGKGLEWVAKISPGGSWTYYSDDVTGRFTFSLDTSKSTAYLQMNSLRAEDTAVYYCARQLWGYYALDIWGQGTLVTVSS VL: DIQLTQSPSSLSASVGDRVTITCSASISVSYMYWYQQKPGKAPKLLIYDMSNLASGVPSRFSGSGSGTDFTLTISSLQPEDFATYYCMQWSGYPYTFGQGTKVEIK 410000

Using known records, supply kon for anti-IL-6 antibody, heavy chain T58V, light chain WT (antibody, IgG1, V domains shown, Full IgG1 tested; V domains derived as in m2) VH: EVQLVESGGGLVQPGGSLRLSCAASGFTFSPFAMSWVRQAPGKGLEWVAKISPGGSWVYYSDTVTGRFTFSLDTSKSTAYLQMNSLRAEDTAVYYCARQLWGYYALDIWGQGTLVTVSS VL: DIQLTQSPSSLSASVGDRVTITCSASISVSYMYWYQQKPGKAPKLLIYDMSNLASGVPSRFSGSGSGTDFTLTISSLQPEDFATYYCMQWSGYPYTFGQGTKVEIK 803000

Using known records, supply kon for anti-IL-6 antibody, heavy chain T58R, light chain WT (antibody, IgG1, V domains shown, Full IgG1 tested; V domains derived as in m2) VH: EVQLVESGGGLVQPGGSLRLSCAASGFTFSPFAMSWVRQAPGKGLEWVAKISPGGSWRYYSDTVTGRFTFSLDTSKSTAYLQMNSLRAEDTAVYYCARQLWGYYALDIWGQGTLVTVSS VL: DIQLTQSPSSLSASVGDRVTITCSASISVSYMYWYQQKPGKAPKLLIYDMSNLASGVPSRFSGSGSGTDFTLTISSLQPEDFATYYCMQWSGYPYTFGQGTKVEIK 357000

Using known records, supply kon for anti-IL-6 antibody, heavy chain F27V, light chain WT (antibody, IgG1, V domains shown, Full IgG1 tested; V domains derived as in m2) VH: EVQLVESGGGLVQPGGSLRLSCAASGVTFSPFAMSWVRQAPGKGLEWVAKISPGGSWTYYSDTVTGRFTFSLDTSKSTAYLQMNSLRAEDTAVYYCARQLWGYYALDIWGQGTLVTVSS VL: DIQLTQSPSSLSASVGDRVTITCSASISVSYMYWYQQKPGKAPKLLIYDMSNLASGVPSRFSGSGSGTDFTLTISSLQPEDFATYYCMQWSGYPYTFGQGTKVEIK 470000
